- experimental-target: GCN2 (Homo sapiens)
- test-description: GCN2 enzyme assay (TR-FRET Lanthascreen, phosphorylation of GFP-eIF2alpha)
- Assay type: biochemical
- condition-info: 10 μM ATP, 80 nM GFP-eIF2alpha, 30 nM GCN2, room temperature
- Sequence (Q9P2K8 whole entry, species assumed): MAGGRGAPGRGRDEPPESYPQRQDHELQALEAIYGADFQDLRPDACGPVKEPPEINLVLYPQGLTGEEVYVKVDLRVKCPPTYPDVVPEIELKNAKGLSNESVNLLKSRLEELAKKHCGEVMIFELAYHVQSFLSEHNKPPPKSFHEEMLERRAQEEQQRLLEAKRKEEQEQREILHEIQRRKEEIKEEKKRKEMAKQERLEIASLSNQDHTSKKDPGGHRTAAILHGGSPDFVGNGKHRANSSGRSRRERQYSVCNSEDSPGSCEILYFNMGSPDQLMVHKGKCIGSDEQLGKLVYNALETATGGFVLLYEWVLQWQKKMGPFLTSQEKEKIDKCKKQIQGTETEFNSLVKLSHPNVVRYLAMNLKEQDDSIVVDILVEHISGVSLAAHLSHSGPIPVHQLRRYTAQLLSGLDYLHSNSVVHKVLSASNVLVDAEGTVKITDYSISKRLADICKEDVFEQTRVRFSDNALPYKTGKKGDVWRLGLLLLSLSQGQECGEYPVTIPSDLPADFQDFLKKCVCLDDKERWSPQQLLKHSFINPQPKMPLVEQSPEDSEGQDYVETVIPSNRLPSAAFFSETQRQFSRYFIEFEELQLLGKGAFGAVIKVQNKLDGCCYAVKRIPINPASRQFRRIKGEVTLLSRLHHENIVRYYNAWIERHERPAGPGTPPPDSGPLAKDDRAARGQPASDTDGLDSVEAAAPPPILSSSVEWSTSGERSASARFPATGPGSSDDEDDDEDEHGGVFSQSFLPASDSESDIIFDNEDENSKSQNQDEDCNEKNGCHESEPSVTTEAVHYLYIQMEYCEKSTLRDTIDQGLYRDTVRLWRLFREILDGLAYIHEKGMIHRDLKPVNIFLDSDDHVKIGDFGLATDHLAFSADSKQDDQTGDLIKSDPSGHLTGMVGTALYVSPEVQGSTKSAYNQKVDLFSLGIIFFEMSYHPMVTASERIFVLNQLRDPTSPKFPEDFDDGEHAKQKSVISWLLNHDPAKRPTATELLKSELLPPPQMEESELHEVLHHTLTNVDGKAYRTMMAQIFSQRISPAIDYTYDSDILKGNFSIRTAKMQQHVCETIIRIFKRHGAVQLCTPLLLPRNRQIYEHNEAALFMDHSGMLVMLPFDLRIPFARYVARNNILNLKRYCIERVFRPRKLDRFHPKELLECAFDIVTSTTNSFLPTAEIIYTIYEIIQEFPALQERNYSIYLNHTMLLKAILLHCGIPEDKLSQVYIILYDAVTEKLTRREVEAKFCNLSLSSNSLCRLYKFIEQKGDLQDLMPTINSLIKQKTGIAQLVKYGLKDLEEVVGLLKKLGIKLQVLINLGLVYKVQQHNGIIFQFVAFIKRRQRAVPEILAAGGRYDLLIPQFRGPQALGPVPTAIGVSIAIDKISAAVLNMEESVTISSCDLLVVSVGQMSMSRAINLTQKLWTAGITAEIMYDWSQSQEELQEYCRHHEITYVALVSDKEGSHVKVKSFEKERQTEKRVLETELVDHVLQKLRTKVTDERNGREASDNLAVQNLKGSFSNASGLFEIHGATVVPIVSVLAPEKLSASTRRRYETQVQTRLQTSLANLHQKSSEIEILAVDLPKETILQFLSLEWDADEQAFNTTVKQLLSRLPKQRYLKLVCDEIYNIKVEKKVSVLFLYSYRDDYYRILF
pIC50: −log10 of the molar value.
Listed compounds paired with reported pIC50
value-type: pIC50

c1ccc(-n2nnc3cnc(Nc4cn[nH]c4)nc32)cc1: > 6.52
CCn1cc(Nc2ncc3nnn(-c4ccc(C(=O)OC)cc4)c3n2)cn1: > 6.52
COc1ccc(-n2nnc3cnc(Nc4cnn([C@H]5CC[C@@H](O)CC5)c4)nc32)nc1: > 6.52
OC[C@@H]1C[C@H]1Cn1cc(Nc2ncc3nnn(-c4ccc(Cl)c(F)c4)c3n2)cn1 (relative stereo): > 6.52
CN1CCC(n2cc(Nc3ncc4nnn(-c5ccc(N6CCCC6=O)cc5)c4n3)cn2)CC1: > 6.52
CCn1cc(Nc2ncc3nnn(-c4ccc(F)cc4)c3n2)cn1: > 6.52
CCCCOc1ccc(-n2nnc3cnc(Nc4cnn(C5CCOCC5)c4)nc32)cn1: 5.52 to 6.52
CCOc1ccc(-n2nnc3cnc(Nc4cnn(C5CCOCC5)c4)nc32)cc1: > 6.52
c1cnc2cc(-n3nnc4cnc(Nc5cnn(C6COC6)c5)nc43)ccc2c1: 5.52 to 6.52
c1cnc2ccc(-n3nnc4cnc(Nc5cnn(C6CCOCC6)c5)nc43)cc2c1: 5.52 to 6.52
CN1CCC(n2cc(Nc3ncc4nnn(-c5ccc(C(N)=O)cc5)c4n3)cn2)CC1: > 6.52
COc1ccc(-n2nnc3cnc(Nc4cnn(-c5ccccc5)c4)nc32)cc1: 5.52 to 6.52
CCOc1ccc(-n2nnc3cnc(Nc4cnn(C5CCN(C)CC5)c4)nc32)cc1: > 6.52
CCn1cc(Nc2ncc3nnn(-c4cnc5ccccc5c4)c3n2)cn1: > 6.52
Fc1ccc(-n2nnc3cnc(Nc4cnn(C5CCOCC5)c4)nc32)cc1: > 6.52
COC(=O)c1ccc(-n2nnc3cnc(Nc4cnn(C5CCOCC5)c4)nc32)cc1: > 6.52
Nc1ccc(-n2nnc3cnc(Nc4cnn(C[C@@H]5C[C@H]5CO)c4)nc32)cn1 (relative stereo): 5.52 to 6.52
COCCOc1ccc(-n2nnc3cnc(Nc4cnn(C5CCN(C(C)=O)C5)c4)nc32)cc1 (stereo not drawn): > 6.52
CN1CCC(n2cc(Nc3ncc4nnn(-c5cccc(F)c5)c4n3)cn2)CC1: > 6.52
COCCN1CCC(n2cc(Nc3ncc4nnn(-c5ccnc(OC)c5)c4n3)cn2)CC1: > 6.52
Fc1cc(-n2nnc3cnc(Nc4cnn(CCN5CCOCC5)c4)nc32)ccc1Cl: 5.52 to 6.52
COc1ccc(-n2nnc3cnc(Nc4ccn(C)n4)nc32)cc1: 4.30 to 5.52
COc1cc(-n2nnc3cnc(Nc4cnn(C5CCOCC5)c4)nc32)ccn1: > 6.52
COc1ccc(-n2nnc3cnc(Nc4cnn([C@H]5CC[C@H](O)CC5)c4)nc32)cn1: 5.52 to 6.52
COCCOc1ccc(-n2nnc3cnc(Nc4cnn(C5CCOCC5)c4)nc32)cc1: > 6.52
CCOc1ccc(-n2nnc3cnc(Nc4cnn(C5CN(C(=O)COC)C5)c4)nc32)cc1: > 6.52
CCCCOc1ccc(-n2nnc3cnc(Nc4cnn(CC)c4)nc32)cn1: 5.52 to 6.52
COc1ccc(-n2nnc3cnc(Nc4cnn([C@H]5CC[C@@H](O)CC5)c4)nc32)cn1: 5.52 to 6.52
CCn1cc(Nc2ncc3nnn(-c4ccc5[nH]ncc5c4)c3n2)cn1: > 6.52
COc1ccc(-n2nnc3cnc(Nc4cnn(C5CCNCC5)c4)nc32)cc1: > 6.52
Fc1cccc(-n2nnc3cnc(Nc4cnn(CCn5cccn5)c4)nc32)c1: > 6.52
OC[C@@H]1C[C@H]1Cn1cc(Nc2ncc3nnn(-c4ccc5nccnc5c4)c3n2)cn1 (relative stereo): > 6.52
COCCN1CCC(n2cc(Nc3ncc4nnn(-c5ccc(OC)cc5)c4n3)cn2)CC1: > 6.52

----------
- experimental-target: GCN2 (Homo sapiens, UniProt Q9P2K8)
- test-description: GCN2 enzyme assay (TR-FRET Lanthascreen, phosphorylation of GFP-eIF2alpha)
- Assay type: biochemical
- condition-info: 10 μM ATP, 80 nM GFP-eIF2alpha, 30 nM GCN2, room temperature
pIC50: −log10 of the molar value.
Listing of recorded pIC50 by entry.
value-type: pIC50

NC(=O)c1ccc(-n2nnc3cnc(Nc4cnn(C5CCOCC5)c4)nc32)cc1: 5.52 to 6.52
CCn1cc(Nc2ncc3nnn(-c4ccc(NC(C)=O)nc4)c3n2)cn1: > 6.52
CC(C)(OCCO)c1ccc(-n2nnc3cnc(Nc4cnn(C5CCOCC5)c4)nc32)cc1: > 6.52
CS(=O)(=O)N1CCC(n2cc(Nc3ncc4nnn(-c5ccc(F)c(Cl)c5)c4n3)cn2)CC1: 5.52 to 6.52
CCOc1ccc(-n2nnc3cnc(Nc4cc(-c5cnn(C)c5C)n[nH]4)nc32)cc1: 5.52 to 6.52

----------
- experimental-target: GCN2 (Homo sapiens)
- test-description: GCN2 enzyme assay (TR-FRET Lanthascreen, phosphorylation of GFP-eIF2alpha)
- Type: biochemical
- condition-info: 10 μM ATP, 80 nM GFP-eIF2alpha, 30 nM GCN2, room temperature
pIC50: −log10 of the molar value.
value-type: pIC50

O[C@H]1CC[C@@H](n2cc(Nc3ncc4nnn(-c5ccc(Cl)c(F)c5)c4n3)cn2)CC1 [Compound A102]: 5.52 to 6.52
CCn1cc(Nc2ncc3nnn(-c4ccc(C(C)(C)N)cc4)c3n2)cn1 [Compound A148]: 5.52 to 6.52
CCCCOc1ccc(-n2nnc3cnc(Nc4cnn(C5CCN(C)CC5)c4)nc32)cn1 [Compound A45]: 5.52 to 6.52
CCn1cc(Nc2ncc3nnn(-c4ccc(C(C)(C)F)cc4)c3n2)cn1 [Compound A128]: > 6.52
COc1ccc(-n2nnc3cnc(Nc4cnn(C)c4)nc32)cc1 [Compound A18]: > 6.52
CN1CCC(n2cc(Nc3ncc4nnn(-c5ccc(S(=O)(=O)N6CCCC6)cc5)c4n3)cn2)CC1 [Compound A136]: 5.52 to 6.52
CN1CCC(n2cc(Nc3ncc4nnn(-c5cnc6ccccc6c5)c4n3)cn2)CC1 [Compound A52]: > 6.52
COCCOc1ccc(-n2nnc3cnc(Nc4cnn(CCn5cccn5)c4)nc32)cc1 [Compound A65]: > 6.52
CN1CCC(n2cc(Nc3ncc4nnn(-c5ccc(F)cc5C#N)c4n3)cn2)CC1 [Compound A74]: 5.52 to 6.52
CCOc1ccc(-n2nnc3cnc(Nc4cnn(CCN5CCOCC5)c4)nc32)cc1 [Compound A115]: > 6.52
CCn1cc(Nc2ncc3nnn(-c4ccc(O)cc4)c3n2)cn1 [Compound A66]: > 6.52
CN1CCC(n2cc(Nc3ncc4nnn(-c5cccc(C(N)=O)c5)c4n3)cn2)CC1 [Compound A67]: > 6.52
CCOc1ccc(-n2nnc3cnc(Nc4cnn(CCN5CCOCC5=O)c4)nc32)cc1 [Compound A149]: > 6.52
CCn1cc(Nc2ncc3nnn(-c4ccc(C(N)=O)cc4)c3n2)cn1 [Compound A70]: > 6.52
CCOc1ccc(-n2nnc3cnc(Nc4cnn(CCN5CCC(O)C5)c4)nc32)cc1 (centres unmarked) [Compound A151]: > 6.52
CCOc1ccc(-n2nnc3cnc(Nc4cnn(CCC5CCNCC5)c4)nc32)cc1 [Compound A97]: > 6.52
COCCCn1cc(Nc2ncc3nnn(-c4ccc(OC)cc4)c3n2)cn1 [Compound A9]: 5.52 to 6.52
COc1ccc(-n2nnc3cnc(Nc4cnn(Cc5ccccc5)c4)nc32)cc1 [Compound A10]: 4.30 to 5.52
CN1CCC(n2cc(Nc3ncc4nnn(-c5ccc6nccnc6c5)c4n3)cn2)CC1 [Compound A101]: > 6.52
CCOc1ccc(-n2nnc3cnc(Nc4cnn(CCCC5CCNCC5)c4)nc32)cc1 [Compound A125]: > 6.52
CCOc1ccc(-n2nnc3cnc(Nc4cn[nH]c4)nc32)cc1 [Compound A5]: > 6.52
c1cnc2cc(-n3nnc4cnc(Nc5cnn(C6CCOCC6)c5)nc43)ccc2c1 [Compound A86]: > 6.52
CCOc1ccc(-n2nnc3cnc(Nc4cnn(CCC5CCN(C(C)=O)CC5)c4)nc32)cc1 [Compound A100]: > 6.52
CCOc1ccc(-n2nnc3cnc(Nc4cnn(-c5ccccc5)c4)nc32)cc1 [Compound A64]: > 6.52
CN1CCC(n2cc(Nc3ncc4nnn(-c5ccc(S(N)(=O)=O)cc5)c4n3)cn2)CC1 [Compound A142]: > 6.52
CN1CCC(n2cc(Nc3ncc4nnn(-c5ccc(F)c(Cl)c5)c4n3)cn2)CC1 [Compound A111]: 5.52 to 6.52

----------
# IC50 annotations
- experimental-target: GCN2 (Homo sapiens)
- test-description: Cellular assay for GCN2 activity (phospho-eIF2alpha immunocytochemistry, tryptophanol-stimulated U2OS cells)
- Assay type: cell-based
- Design: endogenous in cells; host or cells: U2OS
- condition-info: 2 hours compound, then 600 μM tryptophanol 30 minutes, anti-phospho-eIF2alpha, read-out: IC50 GCN2 (cell assay)
- Sequence (Q9P2K8 whole entry): as the sequence (Q9P2K8 whole entry, species assumed) above
value-type: IC50

CCn1cc(-n2nnc3cnc(Nc4cnn(C5CCN(C)CC5)c4)nc32)cn1: 0.3 to 3 µM
CCOc1ccc(-n2nnc3cnc(Nc4cnn(CCn5cccn5)c4)nc32)cc1: 0.3 to 3 µM
Fc1cccc(-n2nnc3cnc(Nc4cnn(C5CCOCC5)c4)nc32)c1: 0.3 to 3 µM
COCCOc1ccc(-n2nnc3cnc(Nc4cnn([C@H]5CC[C@H](O)CC5)c4)nc32)cc1: 3 to 50 µM
CN1CCC(n2cc(Nc3ncc4nnn(-c5ccccc5)c4n3)cn2)CC1: 0.3 to 3 µM
COCCOc1ccc(-n2nnc3cnc(Nc4cnn(C5CCOCC5)c4)nc32)cc1: 0.3 to 3 µM
CC1(C)C(=O)Nc2cc(-n3nnc4cnc(Nc5cnn(C6CCOCC6)c5)nc43)ccc21: 0.3 to 3 µM
CCOc1ccc(-n2nnc3cnc(Nc4cnn(C5CCN(C)CC5)c4)nc32)cc1: 0.3 to 3 µM
COc1ccc(-n2nnc3cnc(Nc4cn[nH]c4)nc32)cc1: 3 to 50 µM
CCOc1ccc(-n2nnc3cnc(Nc4cnn(CCCOC)c4)nc32)cc1: 3 to 50 µM
